src = patent US20230257372A1

target system: human recombinant HDAC6 (Homo sapiens, UniProt Q9UBN7)
Construct: purchased Calbiochem Inc. 382180
Sequence (Q9UBN7 whole entry): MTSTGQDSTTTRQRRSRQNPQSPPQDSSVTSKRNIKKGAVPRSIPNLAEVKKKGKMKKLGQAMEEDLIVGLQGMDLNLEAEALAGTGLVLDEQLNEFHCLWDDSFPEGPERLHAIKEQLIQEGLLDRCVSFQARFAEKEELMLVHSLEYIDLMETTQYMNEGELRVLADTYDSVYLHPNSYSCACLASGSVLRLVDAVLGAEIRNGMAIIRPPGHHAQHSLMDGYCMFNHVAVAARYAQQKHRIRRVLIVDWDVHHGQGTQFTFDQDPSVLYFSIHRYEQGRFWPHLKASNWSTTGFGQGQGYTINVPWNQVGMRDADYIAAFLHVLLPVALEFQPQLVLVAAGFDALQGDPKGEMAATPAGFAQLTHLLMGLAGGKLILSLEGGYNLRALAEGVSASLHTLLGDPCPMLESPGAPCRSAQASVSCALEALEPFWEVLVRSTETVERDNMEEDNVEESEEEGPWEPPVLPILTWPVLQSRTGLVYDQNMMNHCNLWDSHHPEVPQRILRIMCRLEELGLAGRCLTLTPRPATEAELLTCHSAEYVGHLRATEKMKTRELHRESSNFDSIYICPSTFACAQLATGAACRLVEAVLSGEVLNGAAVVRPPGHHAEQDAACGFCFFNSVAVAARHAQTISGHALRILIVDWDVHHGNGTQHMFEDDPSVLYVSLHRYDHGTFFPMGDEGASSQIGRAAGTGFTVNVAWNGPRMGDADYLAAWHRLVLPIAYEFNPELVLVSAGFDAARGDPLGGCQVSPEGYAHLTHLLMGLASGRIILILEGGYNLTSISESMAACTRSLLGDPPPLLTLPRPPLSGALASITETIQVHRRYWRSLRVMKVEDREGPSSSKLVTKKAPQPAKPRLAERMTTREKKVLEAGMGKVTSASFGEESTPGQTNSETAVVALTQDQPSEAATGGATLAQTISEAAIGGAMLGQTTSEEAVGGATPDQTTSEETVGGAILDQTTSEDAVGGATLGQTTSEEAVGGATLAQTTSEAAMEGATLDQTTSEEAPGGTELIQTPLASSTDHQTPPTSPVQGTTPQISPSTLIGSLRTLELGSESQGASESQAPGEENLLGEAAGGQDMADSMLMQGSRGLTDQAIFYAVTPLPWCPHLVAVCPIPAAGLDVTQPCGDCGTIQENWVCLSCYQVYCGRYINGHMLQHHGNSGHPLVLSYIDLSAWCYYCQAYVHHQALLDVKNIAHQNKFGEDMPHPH
test: HDAC6 enzyme activity inhibition (HDAC Fluorimetric Drug Discovery Kit)
Assay type: biochemical
measurement setup: HDAC1 IC50 / HDAC6 IC50
Hi, to clarify the labels: t covers HDAC6 selectivity (fold) from 1000 fold upward, f covers anything below 1000 fold.

Look over these answered cases.
O=C(Nc1cccc(-c2cn(Cc3ccc(-c4nnc(C(F)F)o4)cn3)nn2)c1)C1CNC1: t
Fc1ccc(-c2cn(Cc3ccc(-c4nnc(C(F)F)o4)cc3)nn2)cc1N1CCN(C2CCC2)CC1: f
CCC(F)(CC)CN1CCC(c2cccc(-c3cn(Cc4ccc(-c5nnc(C(F)F)o5)cc4F)nn3)c2)CC1: f
CN1C[C@@H]2C[C@H]1CN2c1cccc(-c2cn(Cc3ccc(-c4nnc(C(F)F)o4)cc3F)nn2)c1: t

Confirm if HDAC6 selectivity (fold) reported for the compound CC(C)N1CCC(F)(c2cn(Cc3ccc(-c4nnc(C(F)F)o4)cn3)nn2)CC1 is 1000 fold or above.
t

Textbook exercise: given the entry FC(F)c1nnc(-c2ccc(Cn3cc(-c4cccs4)nn3)nc2)o1 , state whether its HDAC6 selectivity (fold) is greater than or equal to 1000 fold.
t

Is it the case that CC(=O)N1CCC(Cc2cn(Cc3ccc(-c4nnc(C(F)F)o4)cn3)nn2)CC1 has HDAC6 selectivity (fold) reaching or exceeding 1000 fold?
f

Please indicate if the recorded HDAC6 selectivity (fold) for FC(F)c1nnc(-c2ccc(Cn3cc(-c4ccc(-n5ccnc5)cc4)nn3)nc2)o1 meets or exceeds 1000 fold.
t

* * *

Catalogue of IC50 readings, one per entry.
target system: human recombinant HDAC6 (Homo sapiens)
Construct: purchased Calbiochem Inc. 382180
test: HDAC6 enzyme activity inhibition (HDAC Fluorimetric Drug Discovery Kit)
Format: biochemical
measurement setup: human recombinant HDAC6; IC50 calculated with GraphPad Prism
# value in nM; strip the unit string

Provide IC50, tested on human recombinant HDAC6 (Homo sapiens), for Fc1ccnc(-c2cn(Cc3ccc(-c4nnc(C(F)F)o4)cn3)nn2)c1 .
74.4

Give IC50 only, for CC(=O)N1CCC[C@H]1c1cn(Cc2ccc(-c3nnc(C(F)F)o3)cn2)nn1 , using human recombinant HDAC6 (Homo sapiens) data.
208

GET IC50 where system = human recombinant HDAC6 (Homo sapiens) and item = FC(F)c1nnc(-c2ccc(Cn3cc(-c4ccc(-n5ccnc5)cc4)nn3)nc2)o1
26.1

// output IC50; input FC(F)c1nnc(-c2ccc(Cn3cc(-c4ccnc5[nH]ccc45)nn3)nc2)o1 ; system human recombinant HDAC6 (Homo sapiens)
8.8

Give human recombinant HDAC6 (Homo sapiens) IC50 for the following molecule: FC(F)c1nnc(-c2ccc(Cn3cc(-c4ccc5cc[nH]c5c4)cn3)nc2)o1
33.8

Provide measured IC50 on human recombinant HDAC6 (Homo sapiens) for CCN1CCN(Cc2cccc(-c3cn(Cc4ccc(-c5nnc(C(F)F)o5)cc4F)nn3)c2)CC1 please.
39.7

Recall the reported IC50 of FC(F)c1nnc(-c2ccc(Cn3cc(-c4ccncc4)nn3)nc2)o1 on human recombinant HDAC6 (Homo sapiens) and write it down.
51.8

Give the observed IC50 of FC(F)c1nnc(-c2ccc(Cn3cc(-c4ccc5occc5c4)nn3)nc2)o1 for human recombinant HDAC6 (Homo sapiens).
60.8
